These measurements were taken from patent US20220117938A1.

Test system: Ninety four (94) cell lines and PBMC
protocol.summary: Cell viability assay, SRB staining, 94 cell lines and PBMC (Example 7, Experiment 2)
Format: cell-based
assay.context: Homo sapiens, Caco-2, CACO2, colon
measured.property: pIC50
Schema: pIC50 number; meaning minus log10 of the concentration expressed in molar units.

Problem: For the compound CC(=O)N[C@@H](Cc1c[nH]c2ccccc12)C(=O)N[C@@H](CCC(=O)C=[N+]=[N-])C(=O)OC(C)C [Compound 1] , what pIC50 is on record?
Solution: 4.55

Problem: For the compound [N-]=[N+]=CC(=O)CC[C@H](N)C(=O)O [DON, 6-Diazo-5-oxo-L-norleucine, reference compound] , what pIC50 is on record?
Solution: 4.73
